Attribution: patent US9409952B2

Readings of Papp at 18 hours, 50 µM for the listed molecules
# TEST DESCRIPTION: PAMPA (parallel artificial membrane permeability assay)
# Format: in vitro ADME
# TEST CONDITIONS: PAMPA; membrane permeation rate (Pe); 50 mM MOPSO buffer pH 6.5 with 5.0% glycocholic acid, 37° C., 18 hours; read-out: iPAMPA Pe
Starred links: 1 amine or outer side, 2 acyl side, 3 side chain; linkers in the order of their positions; H or OH if unused. Positions of bridges follow the written chain, without caps; N, C: chain ends. Non-standard residues stand in square brackets, D forms with d. Residues, ends and D or L forms follow the SMILES beside them. *: point of attachment. Ala(1H-tetrazol-5-yl) = N[C@@H](Cc1nnn[nH]1)C(=O)O; X2 = O=C(C[C@H](N[*:1])C(F)(F)F)[*:2]; NMeF = CN[C@@H](Cc1ccccc1)C(=O)O; NMeβAla = CN(CCC(=O)[*:2])[*:1]; NMeL = CN[C@@H](CC(C)C)C(=O)O; NMeS = CN[C@@H](CO)C(=O)O; NMeA = CN[C@@H](C)C(=O)O; Piperidide = C1CCN(*)CC1; Abu = CC[C@H](N)C(=O)O; Sar = CNCC(=O)O; tBu = CC(C)(C)*
MEASURED QUANTITY: Papp at 18 hours, 50 µM

[[record]]
molecule = "CC[C@@H]1NC(=O)[C@H](CO)N(C)C(=O)[C@H](CC(C)C)N(C)C(=O)[C@H](CC(C)C)N(C)C(=O)[C@H](CC(C)C)N(C)C(=O)[C@@H](C)NC(=O)[C@H](CC(C)C)NC(=O)C[C@@H](C(F)(F)F)NC(=O)[C@H](C(C)C)NC(=O)[C@H](CC(C)C)N(C)C(=O)CN(C)C1=O [DP-656] (cyclo([Abu][Sar][NMeL]V[X2]L[dA][NMeL][NMeL][NMeL][NMeS]))"
result = "30 ×10⁻⁶ cm/s"

[[record]]
molecule = "CC(C)C[C@H]1C(=O)N[C@H](C(=O)N2CCCCC2)CC(=O)N(C)CCC(=O)N[C@@H]([C@@H](C)O)C(=O)N(C)[C@@H](C)C(=O)N[C@@H](COC(C)(C)C)C(=O)N(C)[C@@H](Cc2ccccc2)C(=O)N1C [DP-532] ([NMeβAla]T[NMeA]S(tBu)[NMeF][NMeL]D-Piperidide; lactam N-7)"
result = "20 ×10⁻⁶ cm/s"

[[record]]
molecule = "CC(C)C[C@@H]1NC(=O)[C@H](CC(C)C)N(C)C(=O)C[C@@H](C(=O)N2CCCCC2)NC(=O)[C@H](CC(C)C)N(C)C(=O)[C@H](CC(C)C)N(C)C(=O)[C@H](Cc2nn[nH]n2)NC(=O)[C@H](CC(C)C)N(C)C(=O)[C@H](Cc2ccccc2)N(C)C(=O)[C@H](CC(C)C)NC(=O)[C@H](Cc2ccccc2)N(C)C(=O)[C@H](CC(C)C)N(C)C1=O [DP-908] ([NMeL]L[NMeL][NMeF]L[NMeF][NMeL][Ala(1H-tetrazol-5-yl)][NMeL][NMeL]D-Piperidide; lactam N-11)"
result = "1.6 ×10⁻⁶ cm/s"

